B1: HDV Ribozyme (parent)
chain: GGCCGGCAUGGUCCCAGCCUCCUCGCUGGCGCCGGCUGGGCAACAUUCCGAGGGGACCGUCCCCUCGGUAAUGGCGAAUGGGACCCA

variants of: B1; assay: self-cleavage, relative activity (ratio to wild type); higher = more cleavage; co-transcriptional
Outcome: class 1 for self-cleavage of at least 0.2; class 0 for anything lower.

| change | class.label |
| --- | --- |
| C24U G68U | class 1 |
| U47G G73A | class 1 |
| C24G G38U | class 0 |
| G11C U65C | class 1 |
| G17A A51G | class 1 |
| C26U G81A | class 1 |
| G39U C84A | class 1 |
| G17U G54U | class 1 |
| C48G A87C | class 1 |
| G38U A45G | class 0 |
| C18G A77G | class 0 |
| C4G C36U | class 0 |
| C4G C36G | class 0 |
| A8G G35U | class 1 |
| A16U G52C | class 1 |
| C14G C44A | class 0 |
| C57A C66U | class 1 |
| G34A A70G | class 1 |
| A16C A70C | class 1 |
| G6C U37A | class 0 |
| U47C C84A | class 1 |
| C19G C49G | class 0 |
| U65G C66G | class 1 |
| C58U G67C | class 1 |
| G1U G80C | class 1 |
| G11C C26G | class 1 |
| C13A C18A | class 0 |
| G17C C61G | class 1 |
| C18U C26U | class 1 |
| U12A A43U | class 0 |
| U69G C84G | class 1 |
| C32U G76A | class 1 |
| C22A G39U | class 0 |
| G10C U79C | class 0 |
| G34C C64A | class 0 |
| C62A A71G | class 1 |
| C21G C33U | class 0 |
| G39U U60A | class 1 |
| U37C U79C | class 0 |
| G54A U69A | class 1 |
| G11U C86U | class 1 |
| G73C C85G | class 1 |
| C49U G80C | class 0 |
| C7A G73U | class 0 |
| A51G G59U | class 1 |
